- EXPERIMENT_SUMMARY: in vivo
- CONDITIONS: mouse, po
MEASURED_PARAMETER: LD50 (mg/kg)
Give a bare numeral; the unit mg/kg is implied.

[Q] Return reported LD50; argument: CC(=O)OCCN1CCN(CCOC2Cc3cc(Cl)ccc3Sc3ccccc32)CC1 (racemic)
[A] 691

[Q] Which LD50 reading was recorded for the compound OCCCN1CCN(CCOC2Cc3cc(Cl)ccc3Sc3ccccc32)CC1 (centres unmarked) ?
[A] 618

[Q] Fill in: LD50 of CN1CCN(CCOC2Cc3cc(Cl)ccc3Sc3ccccc32)CC1 (centres unmarked) is ___
[A] 401

[Q] Consider the compound Clc1ccc2c(c1)CC(OCCN1CCNCC1)c1ccccc1S2 (centres unmarked) and give its measured LD50.
[A] 509

[Q] What value of measured LD50 is listed for OCCN1CCN(CCOC2Cc3cc(Cl)ccc3Sc3ccccc32)CC1 (centres unmarked) ?
[A] 346
